- Tested on: Enterococcus faecalis
- experimental.protocol: Antibacterial activity against vancomycin-resistant Enterococcus faecalis assessed as bacterial growth inhibition incubated for 16 hrs by microplate reader assay
- Assay type: functional
experimental.endpoint: MIC (µg/mL)
Report the value in µg/mL with no unit label.

## Task Consider the compound CCCCCCCCCCNC(=O)c1cc(NC(=O)CN(C[C@@H](N)CCCCN)C(=O)CC23CC4CC(CC(C4)C2)C3)cc(NC(=O)CN(C[C@@H](N)CCCCN)C(=O)CC23CC4CC(CC(C4)C2)C3)c1 . State its measured MIC.
## Result 2

## Task Give recorded MIC. CCCCCCCC(=O)NCCNC(=O)c1cc(NC(=O)CN(C[C@@H](N)CCCCN)C(=O)CC23CC4CC(CC(C4)C2)C3)cc(NC(=O)CN(C[C@@H](N)CCCCN)C(=O)CC23CC4CC(CC(C4)C2)C3)c1
## Result 4.5
